# Tested on: MDA-MB-468 breast
# test_name: NCI-60 one-dose screen, 48 h
# setup_conditions: 10 µM unless noted
About 83,000 compounds went through this panel and 20% of them were active in at least one assay; those are over-represented in the sample as a whole. Activity calls are given as the source filed them. How the source made its calls: active means growth percent below 10; inactive means the rest.
Your answer must be one of the following: Yes (active), No (inactive)

Consider the following illustrative entries.
Please indicate how the test categorized CC(=O)O[C@H]1C[C@H](O[C@H]2[C@@H](O)C[C@H](O[C@H]3[C@@H](O)C[C@H](O[C@H]4CC[C@@]5(C)C(CCC6C5C[C@@H](O)[C@]5(C)[C@@H](C7=CC(=O)OC7)CC[C@]65O)C4)O[C@@H]3C)O[C@@H]2C)O[C@H](C)[C@H]1O[C@@H]1O[C@H](CO)[C@@H](O)[C@H](O)[C@H]1O (stereo partly specified) .
Yes

Here is the next compound: O=C(/C=C/c1ccc(Cl)cc1)c1nc2ccccc2n1Cc1ccc(F)cc1
Yes

Cool, now CCOC(=O)CCN(C)C1=Nc2ccc(Cl)cc2C(c2ccccc2)=[N+]([O-])C1
No

Repeat with O=c1[nH]c2ccccc2n1C1CCN(CCCC(c2ccc(F)cc2)c2ccc(F)cc2)CC1
No

Follow-up entry: c1ccc(CCN2CCCCC2)nc1
No

Next:
Could you kindly confirm the outcome this assay logged for CN1CCN(c2ccc([N+](=O)[O-])c3no[n+]([O-])c23)CC1 ?
Yes

###

# Test system: UO-31 renal
# test_name: NCI-60 one-dose screen, 48 h (100 = growth as untreated, 0 = no growth, -100 = all killed)
# setup_conditions: 10 µM
The panel holds about 83,000 compounds, 20% with a hit somewhere; the sample as a whole holds those more often.
The following compounds are shown together with reported growth values.
Number only, in %; omit the unit.

// worked examples, growth included
Any idea what growth came out for O=C(/C=C/c1ccc(Cl)cc1Cl)c1nc2ccccc2n1Cc1ccc(Br)cc1 on UO-31 renal?
50.9

# iterate: O=C(/C=C/c1ccc(Cl)cc1)c1nc2ccccc2n1Cc1ccc(Br)cc1
42.6

Same question for C=CC[Se]C(=O)c1cncc(C(=O)[Se]CC=C)c1 please.
-98.4

Next:
Recall the recorded growth for CCC[Se]C(=O)c1ccc(C(=O)[Se]CCC)s1 with UO-31 renal and state it.
-55.5

Thanks! And COc1ccc(OC)c(/C=C/C(=O)c2nc3ccccc3n2Cc2ccc(F)cc2)c1 ?
-43.9

Would you mind doing CC1=C(CCC=O)C2=C(C)C3(CC3)[C@@](C)(O)C(=O)C2=C1 as well?
-99.7

Item: CN(C)CCc1cn(C2CCC2)c2cccc(O)c12
47.8

Try this compound too: O=C(NCCCCC(c1ccc(F)cc1)c1ccc(F)cc1)Nc1ccc([N+](=O)[O-])c(C(F)(F)F)c1
0

Also O=C(NC([Se])=NC1CCCCC1)c1ccc2c(c1)OCO2 ?
38.5

Likewise for O=C(NC([Se])=NC1CCCCC1)c1ccccc1 ?
6.45

###

# Test system: HL-60(TB) leukemia
# test_name: NCI-60 one-dose screen, 48 h (100 = growth as untreated, 0 = no growth, -100 = all killed)
# setup_conditions: 10 µM unless noted
This is part of a sample that, as a whole, favours compounds with a hit. Of some 83,000 tested, about 20% had one in any assay.
readout_name: growth (%)
Answer in %, number only, no unit symbol.

Provide the documented growth with HL-60(TB) leukemia as the system for N#Cc1cc(-c2ccnc(Nc3ccc(N4CCN(C5COC5)CC4)cc3)n2)ccc1N1CCCC1
48.1

Try the molecule COc1cc(-c2nc3ccc(C)cc3[nH]2)ccc1OCc1nnc(-c2ccccc2Br)o1
69.5

Same thing, different molecule: CC12CC[C@@H]3[C@]4(C)COC(c5cn[nH]c5-c5cccc(Cl)c5)O[C@@H]4CC[C@@]3(C)[C@@H]1CC(C1=CCOC1=O)O2 (some centres not stated)
22.3

###

# System: T-47D breast
# test_name: NCI-60 one-dose screen, 48 h (100 = growth as untreated, 0 = no growth, -100 = all killed)
# setup_conditions: 10 µM
Compounds without any hit were thinned out: in the full panel of roughly 83,000, 20% have a hit. The source made the active and inactive calls. The calls were made as follows: active = growth percent below 10; inactive = the rest.
readout_name: growth

Would you please look over these solved cases?
// lookup growth for COC(=O)C[C@](O)(CCC(C)C)C(=O)O[C@@H]1C(OC)=C[C@]23CCCN2CCc2cc4c(cc2[C@H]13)OCO4
-24% (active)

Same thing, different compound: O=C(/C=C/c1ccc(Cl)cc1)c1nc2ccccc2n1Cc1ccc(F)cc1
7.93% (active)

Turning now to a further record.
Entry C=CC[Se]C(=O)c1cncc(C(=O)[Se]CC=C)c1 : reported growth = ?
-42.2% (active)

###

# Tested on: UACC-62 melanoma
# test_name: NCI-60 one-dose screen, 48 h
# setup_conditions: 10 µM
# Method: Growth inhibition of the UACC-62 human tumor cell line is measured as a screen for anti-cancer activity. Cells are grown in 96 well plates and exposed to the test compound for 48 hours. Compounds are tested at a single concentration, which is 10^-5 M for most compounds. The reported endpoint is percent growth (GI% or GIPRCNT), where numbers from 0 - 100% represent growth inhibition, and numbers from -100% - 0 represent cell death. For example, a value of 40 represents 60% growth inhibition. […]
About 83,000 compounds went through this panel and 20% of them were active in at least one assay; those are over-represented in the sample as a whole. The source made the active and inactive calls. The calls were made as follows: active = growth percent below 10; inactive = the rest.
Please answer using one outcome listed in active, inactive

Completed entries (count: 4):
Which outcome was entered for the compound O=C(/C=C/c1ccc(F)cc1)c1nc2ccccc2n1Cc1ccc(Br)cc1 in this test?
active

Try this compound next: COc1ccc2cc([C@H](C)C(=O)[Se]CCC#N)ccc2c1
active

What would you report for CC(=O)Oc1ccccc1C(=O)NC([Se])=NC1CCCCC1 ?
active

Same thing, different compound: C[C@H]1[C@@H](Oc2ccc(-c3cn(-c4ccnc5cc(Cl)ccc45)nn3)cc2)O[C@@H]2OC3(C)CC[C@H]4[C@H](C)CC[C@@H]1[C@@]24OO3
inactive

API: the following record is the query input.
What did this assay record as the result for CC12OOC(C)(OO1)C2CCC(=O)NCCCNc1ccnc2cc(Cl)ccc12 (stereo not given) ?
inactive

###

# Tested on: MALME-3M melanoma
# test_name: NCI-60 one-dose screen, 48 h
# setup_conditions: 10 µM
Compounds without any hit were thinned out: in the full panel of roughly 83,000, 20% have a hit. Active and inactive are the calls of the source. How the source made its calls: active means growth percent below 10; inactive means the rest.
Lab note: assign the record to one of T (active), F (inactive)

Known results for compounds:
State the result this test recorded for CC12OOC(C)(OO1)C2CCC(=O)OCCNc1ccnc2cc(Cl)ccc12 (centres undefined) .
T

Can you handle COc1ccc(OC)c(/C=C/C(=O)c2nc3ccccc3n2Cc2ccc(F)cc2)c1 next?
T

How about this compound: CCC[Se]C(=O)c1ccc(C(=O)[Se]CCC)s1
T

New cases:
Outcome logged for CC[C@]12C=CCN3CC[C@@]4(c5ccc(OC)cc5N(C)[C@H]4[C@@](O)(C(=O)OC)[C@@H]1OC(=O)CCC[P+](C1CCCCC1)(C1CCCCC1)C1CCCCC1)[C@@H]32 in this assay:
T

Proceed to COCCOCCOCCOc1ccc(-n2cc(CCCN(CCNc3ccnc4cc(Cl)ccc34)C(=O)CCC(=O)O[C@@H]3O[C@@H]4OC5(C)CC[C@H]6[C@H](C)CC[C@@H]([C@H]3C)[C@@]46OO5)nn2)cc1
T

And then CC[C@]12C=CCN3CC[C@@]4(c5ccc(OC)cc5N(C)[C@H]4[C@@](O)(C(=O)OC)[C@@H]1OC(=O)CCC[P+](c1ccc(C)cc1)(c1ccc(C)cc1)c1ccc(C)cc1)[C@@H]32 , what is it?
T

What do you have for CC1=C(CCC=O)C2=C(C)C3(CC3)[C@@](C)(O)C(=O)C2=C1 ?
T

Record: O=C(/C=C/c1ccc(Cl)cc1Cl)c1nc2ccccc2n1Cc1ccc(Br)cc1
F

And then C#CC[Se]C(=O)c1ccc(C(=O)[Se]CC#C)s1 , what is it?
F

###

# Tested on: RPMI-8226 leukemia
# test_name: NCI-60 one-dose screen, 48 h
# setup_conditions: 10 µM
The panel holds about 83,000 compounds, 20% with a hit somewhere; the sample as a whole holds those more often. Active and inactive are the calls of the source. How the source made its calls: active means growth percent below 10; inactive means the rest.
One label from this list, please: active, inactive

# count of solved cases: 4
For O=C(/C=C/c1ccc(Cl)cc1)c1nc2ccccc2n1Cc1ccc(Br)cc1 , which call appears in the assay record?
active

Try this molecule too: CC(C)N=C([Se])NC(=O)c1ccccc1
active

Request: CC(=O)Oc1ccccc1C(=O)NC([Se])=NC1CCCCC1
inactive

Can you check COc1ccc(/C=C/C(=O)c2nc3ccccc3n2Cc2ccc(Br)cc2)cc1 next?
inactive

--- query ---
Give the logged outcome of this assay for the following molecule: CC[C@]12C=CCN3CC[C@@]4(c5ccc(OC)cc5N(C)[C@H]4[C@@](O)(C(=O)OC)[C@@H]1OC(=O)CCC[P+](c1ccc(C)cc1)(c1ccc(C)cc1)c1ccc(C)cc1)[C@@H]32
active
